- Method Notes: Cardioprotective effect in Langendorff perfused guinea pig spontaneously beating […] assessed as duration of ventricular action potential at 10 uM (RVb = 140 to 161 +/- 2 to 8 ms)
- Assay type: functional, Cavia porcellus, Cardiac ventricle
Activity values, listed per item
Quantity Name: Activity

{"Compound": "Cc1cccc(C)c1NCCSC[C@@H]1CCCN2CCCC[C@H]12", "Assay Result": "175 ms"}
{"Compound": "Cc1cccc(C)c1NCC[C@@H]1CCCN2CCCC[C@H]12", "Assay Result": "175 ms"}
{"Compound": "COc1cc(NC(C)=O)c(Cl)cc1C(=O)NC[C@@H]1CCCN2CCCC[C@H]12", "Assay Result": "155 ms"}
{"Compound": "Cc1cc(C(=O)c2ccccc2)ccc1NC(=O)C[C@@H]1CCCN2CCCC[C@H]12", "Assay Result": "170 ms"}
{"Compound": "Cc1cccc(C)c1NC(=O)CSC[C@@H]1CCCN2CCCC[C@H]12 [LUPINYLTHIOACETYLANILIDE]", "Assay Result": "168 ms"}
